# target: Estrogen receptor (Homo sapiens)
# assayNotes: ATG_ERa_TRANS: Attagene TRANS-FACTORIAL HepG2 Assay for human Estrogen Receptor alpha (ERa) (AID 2282970)
# conditionSet: HepG2 Attagene TRANS ERa GAL4 reporter, mRNA
Results filed as inconclusive are left out. Activity calls are given as the source filed them. Rule for the calls: active = hit-call score of the fitted dose curve at least 0.9, where 1 is the maximum; inconclusive = response in the unintended direction; inactive = score below 0.9.
Classes used: 1.0 for active, 0.0 for inactive

# molecule, classification
measured = [
    ("CCCCCCCCC1CCC(=O)O1 (configuration not stated)", 0.0),
    ("FC(OC(F)(F)C(F)(F)C(F)(F)F)C(F)(F)F (configuration not stated)", 0.0),
    ("CCCCCCCCCCCC(=O)NCCCN(C)C", 0.0),
    ("COc1ccccc1NC(=O)c1cc2ccccc2cc1O", 0.0),
    ("CCCCCCOC(=O)c1ccc(O)cc1", 1.0),
    ("O=C1c2ccccc2C(=O)c2c(O)c(O)cc(O)c21", 1.0),
    ("COC(O)c1ccccc1 (configuration not stated)", 1.0),
    ("O=P(O)(O)CCC(F)(F)C(F)(F)C(F)(F)C(F)(F)C(F)(F)C(F)(F)C(F)(F)C(F)(F)F", 0.0),
    ("CCOC(=O)c1nc(C(Cl)(Cl)Cl)n(-c2ccc(Cl)cc2Cl)n1", 1.0),
    ("C/C=C/C(=O)C1=C(C)CCCC1(C)C", 0.0),
    ("CCCCCCCCCC=CCC1CC(=O)OC1=O (configuration not stated)", 0.0),
    ("O=CC(F)(F)C(F)(F)C(F)(F)C(F)F", 0.0),
]
